Biological target: PFKP (Homo sapiens)
Construct: Flag; expressed in transfected cells; host or cells: HEK 293T, transient transfection, soluble lysate; cDNA clone 5180268 (Dharmacon)
Sequence (Q01813 1-784): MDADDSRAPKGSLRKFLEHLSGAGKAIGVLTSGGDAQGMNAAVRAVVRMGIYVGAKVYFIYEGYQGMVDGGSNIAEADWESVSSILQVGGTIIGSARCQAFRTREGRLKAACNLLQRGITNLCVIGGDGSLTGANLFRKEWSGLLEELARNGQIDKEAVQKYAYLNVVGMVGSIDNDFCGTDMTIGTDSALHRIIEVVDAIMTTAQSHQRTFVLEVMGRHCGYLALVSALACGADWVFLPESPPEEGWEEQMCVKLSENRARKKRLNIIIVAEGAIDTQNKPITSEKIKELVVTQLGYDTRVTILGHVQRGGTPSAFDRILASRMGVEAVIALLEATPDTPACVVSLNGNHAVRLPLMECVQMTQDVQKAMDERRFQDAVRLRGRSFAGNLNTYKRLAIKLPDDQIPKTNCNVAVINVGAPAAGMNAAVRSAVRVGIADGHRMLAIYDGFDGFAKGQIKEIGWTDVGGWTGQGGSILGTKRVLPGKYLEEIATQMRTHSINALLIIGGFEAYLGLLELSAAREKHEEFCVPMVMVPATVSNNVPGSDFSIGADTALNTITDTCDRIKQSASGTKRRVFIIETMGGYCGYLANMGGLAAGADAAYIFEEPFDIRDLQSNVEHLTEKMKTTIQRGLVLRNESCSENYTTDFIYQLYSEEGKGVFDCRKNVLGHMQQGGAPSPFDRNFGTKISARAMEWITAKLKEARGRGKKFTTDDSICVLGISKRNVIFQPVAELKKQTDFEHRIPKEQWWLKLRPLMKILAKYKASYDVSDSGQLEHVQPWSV
Assay: PFKP functional assay
Format: biochemical
Conditions: WT-PFKP, enzyme-coupled assay; read-out: apparent IC50, inhibition of PFKP activity
endpoint: IC50 (µM)

1) O=C(Oc1c(F)c(F)c(F)c(F)c1F)C(c1ccccc1)c1ccccc1 [fragment 20, Pentafluorophenyl 2,2-diphenylacetate]	2.9

* * *

molecular target: MTOR Serine/threonine-protein kinase mTOR (Homo sapiens, UniProt P42345); construct: isoTOP-ABPP experiments performed in cell lysates (in vitro); endogenous in cells; host or cells: soluble proteome of human cancer cell lines (MDA-MB-231; Ramos and Jurkat also prepared); test: competitive isoTOP-ABPP; assay type: binding; conditions: P42345_K2066; 50 uM, 231 sol, in vitro
Respond with TRUE for R value (DMSO/fragment) for probe 1 labeling values of 1 and above, FALSE for values below.

1. Cn1cc(CC(=O)Oc2c(F)c(F)c(F)c(F)c2F)c2ccccc21	TRUE
2. O=C(Oc1c(F)c(F)c(F)c(F)c1F)c1cc(C(F)(F)F)cc(C(F)(F)F)c1	FALSE
3. O=C(CCc1cn(-c2ccccc2)nc1-c1ccccc1)Oc1c(F)c(F)c(F)c(F)c1F	FALSE
4. COc1cc(CCC(=O)Oc2c(F)c(F)c(F)c(F)c2F)cc(OC)c1OC	TRUE

* * *

Documented isoTOP-ABPP reactivity ratio at lysine P68104_K84 across a set of compounds
Molecular target: EEF1A1 Elongation factor 1-alpha 1 (Homo sapiens, UniProt P68104)
Construct: isoTOP-ABPP experiments performed in cell lysates (in vitro); endogenous in cells; host or cells: soluble proteome of human cancer cell lines (MDA-MB-231, Ramos, Jurkat)
Sequence (P68104 1-462): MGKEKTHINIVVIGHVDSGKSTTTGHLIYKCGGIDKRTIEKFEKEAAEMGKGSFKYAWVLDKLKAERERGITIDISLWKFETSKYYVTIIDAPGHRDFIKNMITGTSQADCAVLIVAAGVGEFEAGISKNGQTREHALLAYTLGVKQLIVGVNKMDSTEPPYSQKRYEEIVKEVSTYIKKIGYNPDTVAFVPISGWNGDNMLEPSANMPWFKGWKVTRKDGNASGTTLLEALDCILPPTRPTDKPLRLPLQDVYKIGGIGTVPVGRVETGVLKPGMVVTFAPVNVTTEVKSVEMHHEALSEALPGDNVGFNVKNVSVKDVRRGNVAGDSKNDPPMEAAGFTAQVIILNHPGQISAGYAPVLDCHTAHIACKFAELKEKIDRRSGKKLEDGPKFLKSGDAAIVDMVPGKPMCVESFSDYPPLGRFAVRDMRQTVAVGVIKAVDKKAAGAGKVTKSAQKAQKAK
Assay: competitive isoTOP-ABPP
Format: binding
Conditions: 50 uM, 231 sol, in vitro
endpoint: isoTOP-ABPP reactivity ratio at lysine P68104_K84

1) O=C(CCc1cn(-c2ccccc2)nc1-c1ccccc1)Oc1ccc([N+](=O)[O-])cc1[N+](=O)[O-] [fragment 29]	20.0
2) O=C(Oc1ccc([N+](=O)[O-])cc1[N+](=O)[O-])C(c1ccccc1)c1ccccc1 [fragment 30, 2,4-Dinitrophenyl 2,2-diphenylacetate]	0.5
3) Cn1cc(CC(=O)Oc2ccc([N+](=O)[O-])cc2[N+](=O)[O-])c2ccccc21 [fragment 32]	0.4
4) O=C(Oc1ccc([N+](=O)[O-])cc1[N+](=O)[O-])c1cc(C(F)(F)F)cc(C(F)(F)F)c1 [fragment 31]	0.4
